Subject Of Test: κ opioid receptor (Cavia porcellus)
Construct: determined in guinea pig brain cells; from tissue; host or cells: guinea pig brain
Sequence (P41144 whole entry): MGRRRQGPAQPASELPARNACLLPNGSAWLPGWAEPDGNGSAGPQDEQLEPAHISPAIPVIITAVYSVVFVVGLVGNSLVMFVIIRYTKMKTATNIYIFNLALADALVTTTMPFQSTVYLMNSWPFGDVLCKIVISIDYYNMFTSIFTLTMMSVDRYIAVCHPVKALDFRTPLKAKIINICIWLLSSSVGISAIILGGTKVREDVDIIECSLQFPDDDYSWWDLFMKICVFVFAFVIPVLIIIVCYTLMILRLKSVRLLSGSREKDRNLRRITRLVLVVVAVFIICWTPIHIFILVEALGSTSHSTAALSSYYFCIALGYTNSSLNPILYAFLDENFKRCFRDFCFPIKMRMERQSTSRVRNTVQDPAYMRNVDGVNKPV
Assay Method Text: biochemical
Type: binding, guinea pig
Experimental Setup: Ki [3H] U69,593 (κ)
The label is 1.0 for Ki below 20 nM and 0.0 for Ki equal to or exceeding 20 nM.

Consider the following illustrative entries.
                                   compound  group_label
0  CC1C2Cc3ccc(CN)cc3C1(C)CCN2CC1CC1 (mixture of isomers)          1.0
1  C[C@H]1C2Cc3ccc(CO)cc3[C@@]1(C)CCN2CC1CC1 (racemic)          1.0
2  CC1C2Cc3ccc(C4=NCCN4)cc3C1(C)CCN2CC1CC1 (stereo not drawn)          1.0
3  C[C@H]1[C@H]2Cc3ccc(C(=O)O)cc3[C@]1(C)CCN2CC1CC1 (racemic)          0.0
4  CC1C2Cc3ccc(C(=NO)c4ccccc4)cc3C1(C)CCN2CC1CC1 (stereo not drawn)          1.0
5  C[C@H]1[C@H]2Cc3ccc(NS(C)(=O)=O)cc3[C@]1(C)CCN2CC1CC1 (racemic)          0.0
6  CC1C2Cc3ccc(NC=O)cc3C1(C)CCN2CC1CC1 (single isomer, unassigned) [Example 19b]          0.0
7  C[C@H]1[C@H]2Cc3ccc(C(=O)NO)cc3[C@]1(C)CCN2CC1CC1 (racemic)          1.0
8  COc1ccc(CNC(=O)c2ccc3c(c2)[C@]2(C)CCN(CC4CC4)[C@H](C3)[C@@H]2C)cc1 (racemic)          0.0
9  C[C@H]1C2Cc3ccc(C#N)cc3[C@@]1(C)CCN2CC1CC1 (racemic)          0.0

Prompt: Is Ki strictly under 20 nM for the entry C[C@H]1C2Cc3ccc(C(N)=S)cc3[C@@]1(C)CCN2CC1CC1 (racemic) ?
Completion: 1.0

Prompt: Lab note: confirm whether the reported Ki for this compound is below 20 nM, equality not counting. compound: C[C@H]1[C@H]2Cc3ccc(C(=O)NCCCN(C)C)cc3[C@]1(C)CCN2CC1CC1 (racemic)
Completion: 0.0

----------
Subject Of Test: μ opioid receptor (Cavia porcellus)
Sequence (A0ACM8Q262 1-400): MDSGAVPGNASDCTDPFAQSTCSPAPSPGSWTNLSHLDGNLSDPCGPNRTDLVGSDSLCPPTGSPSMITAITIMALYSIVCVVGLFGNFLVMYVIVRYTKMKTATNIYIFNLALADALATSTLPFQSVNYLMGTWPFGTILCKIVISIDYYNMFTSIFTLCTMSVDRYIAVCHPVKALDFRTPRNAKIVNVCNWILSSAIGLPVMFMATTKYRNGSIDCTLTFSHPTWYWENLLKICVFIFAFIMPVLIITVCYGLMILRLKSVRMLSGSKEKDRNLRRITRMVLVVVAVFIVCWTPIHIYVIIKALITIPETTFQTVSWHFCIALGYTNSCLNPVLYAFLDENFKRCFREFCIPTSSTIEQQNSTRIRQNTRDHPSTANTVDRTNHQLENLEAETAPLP
Format: binding, guinea pig
Experimental Setup: read-out: Ki [3H] DAMGO (μ)
Measure: Ki (nM)
Give bare numbers, in nM.

According to the records, this compound CC1C2Cc3ccc(NC(N)=O)cc3C1(C)CCN2CC1CC1 (racemic) displays Ki of 20

----------
Subject Of Test: human μ opioid receptor (Homo sapiens)
Construct: expressed in transfected cells; host or cells: Chinese hamster ovary (CHO) cells
Sequence (P35372 whole entry): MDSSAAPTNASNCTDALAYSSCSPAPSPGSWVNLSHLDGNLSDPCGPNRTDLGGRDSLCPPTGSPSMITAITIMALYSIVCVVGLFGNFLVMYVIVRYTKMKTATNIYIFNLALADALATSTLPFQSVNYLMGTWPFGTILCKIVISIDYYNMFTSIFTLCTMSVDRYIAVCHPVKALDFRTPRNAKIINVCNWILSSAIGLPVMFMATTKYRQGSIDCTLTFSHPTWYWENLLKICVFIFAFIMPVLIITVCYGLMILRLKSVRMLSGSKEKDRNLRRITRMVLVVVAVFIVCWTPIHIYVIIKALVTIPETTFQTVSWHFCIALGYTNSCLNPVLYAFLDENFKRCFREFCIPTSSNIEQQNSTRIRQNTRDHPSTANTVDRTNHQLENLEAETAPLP
Assay Method Text: biochemical
Type: binding
Experimental Setup: read-out: Ki [3H] DAMGO (μ)
Measure: pKi
Numbers only, as −log10 of the molar value.

The value of pKi measured for the compound CC1C2Cc3ccc(NC(N)=S)cc3C1(C)CCN2CC1CC1 (racemic) [Example 37] turned out to be 8.00

----------
Subject Of Test: δ opioid receptor (Cavia porcellus)
Construct: determined in guinea pig brain cells; from tissue; host or cells: guinea pig brain
Sequence (A0A286XTF2 1-366): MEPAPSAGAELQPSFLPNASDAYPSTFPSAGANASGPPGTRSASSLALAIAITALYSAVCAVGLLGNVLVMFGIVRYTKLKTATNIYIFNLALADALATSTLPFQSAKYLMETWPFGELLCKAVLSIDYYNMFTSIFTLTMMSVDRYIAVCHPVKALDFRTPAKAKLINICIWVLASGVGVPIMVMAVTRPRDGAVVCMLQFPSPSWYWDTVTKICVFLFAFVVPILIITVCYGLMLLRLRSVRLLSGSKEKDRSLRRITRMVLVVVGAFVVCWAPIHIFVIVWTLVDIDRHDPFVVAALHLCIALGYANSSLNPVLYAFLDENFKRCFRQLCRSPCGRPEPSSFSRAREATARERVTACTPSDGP
Assay Method Text: biochemical
Type: binding, guinea pig
Experimental Setup: Ki [3H] Naltrindole (δ)
Met if Ki is below 60 nM. Not met if not; exact matches included in Not met.

>>> df
                                   compound  group_label
0  C[C@H]1[C@H]2Cc3ccc(C(=O)NCCCN(C)C)cc3[C@]1(C)CCN2CC1CC1 (racemic)      Not met
1  CC1C2Cc3ccc(NC=S)cc3C1(C)CCN2CC1CC1 (stereo not drawn)          Met
2  CC1C2Cc3ccc(C4=NCCN4)cc3C1(C)CCN2CC1CC1 (stereo not drawn)          Met

Prompt: Consider C[C@H]1C2Cc3ccc(C#N)cc3[C@@]1(C)CCN2CC1CC1 (racemic) . Does its Ki lie strictly below 60 nM?
Completion: Not met

Prompt: Quick check: does CNC(=O)c1ccc2c(c1)C1(C)CCN(CC3CC3)C(C2)C1C (stereo not drawn) have Ki under 60 nM?
Completion: Not met

Prompt: Ki strictly < 60 nM for this compound? CC1C2Cc3ccc(C(=O)c4ccccc4)cc3C1(C)CCN2CC1CC1 (stereo not drawn)
Completion: Not met

Taken from patent US9932349B2.
